- tgt: hDAT (Homo sapiens (Human), UniProt Q01959)
- Sequence (Q01959 whole entry): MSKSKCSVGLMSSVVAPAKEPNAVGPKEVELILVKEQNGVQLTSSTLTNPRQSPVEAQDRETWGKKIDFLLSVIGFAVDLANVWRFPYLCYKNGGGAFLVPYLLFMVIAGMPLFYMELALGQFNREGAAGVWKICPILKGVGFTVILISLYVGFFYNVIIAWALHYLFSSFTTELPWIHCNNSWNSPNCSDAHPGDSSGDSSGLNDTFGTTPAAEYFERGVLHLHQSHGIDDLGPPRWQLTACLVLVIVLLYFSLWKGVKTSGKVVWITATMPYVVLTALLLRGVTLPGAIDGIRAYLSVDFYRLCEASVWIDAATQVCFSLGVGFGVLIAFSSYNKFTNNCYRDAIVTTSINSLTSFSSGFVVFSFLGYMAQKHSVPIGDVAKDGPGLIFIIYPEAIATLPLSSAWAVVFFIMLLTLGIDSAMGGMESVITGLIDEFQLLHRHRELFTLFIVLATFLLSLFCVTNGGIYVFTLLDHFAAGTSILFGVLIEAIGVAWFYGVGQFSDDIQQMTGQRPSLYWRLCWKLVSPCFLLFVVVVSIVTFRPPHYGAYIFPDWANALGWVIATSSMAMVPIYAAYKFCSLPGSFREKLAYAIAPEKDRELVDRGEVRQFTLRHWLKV
- protocolSummary: DAT radioligand binding assay ([125I]RTI-55, HEK-293 membranes)
- reportedConditions: recombinant HEK-293 membranes, [125I]RTI-55; read-out: Binding Affinity (IC50, nM) DAT
measuredAttribute: log10 of IC50 (log10 of the value in nM)
Hello, just confirming the data are log10 of IC50 with units of nM.

Query block: Using the record for `Clc1ccc(C23CCN(CC2)Cc2cc(Oc4cnccn4)ccc23)cc1Cl` , report its log10 of IC50.
Result block: 1.53

Query block: Using the record for `c1cc(C23CCN(CC2)Cc2cc(N4CCOCC4)ccc23)ccc1N1CCOCC1` , report its log10 of IC50.
Result block: 3.72

Query block: Using the record for Fc1ccc(C23CCN(Cc4cc(-c5ccc(C(F)(F)F)nn5)ccc42)C3)cc1Cl (single isomer, unassigned) [56(−)] , report its log10 of IC50.
Result block: 2.39

Query block: Using the record for `Clc1ccc(C23CCN(CC2)Cc2cc(OCCCc4cccnc4)ccc23)cc1` , report its log10 of IC50.
Result block: 1.82

Query block: Using the record for Fc1ccc(C23CCN(Cc4cc(-c5ccc6ncnn6c5)ccc42)C3)cc1Cl (single isomer, unassigned) [55(−)] , report its log10 of IC50.
Result block: 1.55

More entries:
Query block: Using the record for `N#Cc1cccc(-c2ccc3c(c2)CN2CCC3(c3ccc(Cl)cc3)CC2)c1` , report its log10 of IC50.
Result block: 2.13

Query block: Using the record for Fc1ccc(C23CCN(Cc4cc(-c5ccc(C(F)(F)F)nn5)ccc42)C3)cc1Cl (single isomer, unassigned) [56(+)] , report its log10 of IC50.
Result block: 1.06

Query block: Using the record for `FC(F)Oc1ccc2c(c1)CN1CCC2(c2ccc(Cl)c(Cl)c2)CC1` , report its log10 of IC50.
Result block: 1.74

---

- tgt: hSERT (Homo sapiens (Human), UniProt P31645)
- Sequence (P31645 whole entry): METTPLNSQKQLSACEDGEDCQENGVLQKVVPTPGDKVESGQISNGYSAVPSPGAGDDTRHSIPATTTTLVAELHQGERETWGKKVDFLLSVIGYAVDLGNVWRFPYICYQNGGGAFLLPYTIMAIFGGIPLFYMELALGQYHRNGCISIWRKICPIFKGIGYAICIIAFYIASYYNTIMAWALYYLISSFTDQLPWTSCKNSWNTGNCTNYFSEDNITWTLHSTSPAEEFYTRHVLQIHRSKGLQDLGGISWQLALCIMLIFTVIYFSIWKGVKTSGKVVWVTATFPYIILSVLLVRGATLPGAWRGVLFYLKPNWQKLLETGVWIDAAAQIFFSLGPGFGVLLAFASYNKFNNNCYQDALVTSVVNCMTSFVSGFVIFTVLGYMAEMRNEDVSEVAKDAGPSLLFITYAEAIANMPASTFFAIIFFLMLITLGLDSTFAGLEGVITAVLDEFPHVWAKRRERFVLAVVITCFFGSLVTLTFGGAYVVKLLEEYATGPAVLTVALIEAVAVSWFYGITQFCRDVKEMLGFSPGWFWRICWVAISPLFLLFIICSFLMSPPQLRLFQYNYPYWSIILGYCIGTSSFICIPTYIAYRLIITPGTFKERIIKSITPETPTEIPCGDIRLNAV
- protocolSummary: SERT radioligand binding assay ([125I]RTI-55, HEK-293 membranes)
- reportedConditions: recombinant HEK-293 membranes, [125I]RTI-55; read-out: Binding Affinity (IC50, nM) SERT
Recorded IC50 values for a group of compounds are listed next.
// units = nM; emit number, no label

For orientation, consider the following solved cases.
Query block: Using the record for O=c1[nH]c2ccc(-c3ccc4c(c3)CN3CCC4(c4ccc(Cl)c(Cl)c4)C3)cc2o1 (single isomer, unassigned) [11(−)] , report its IC50.
Result block: 3.9

Query block: Using the record for `Fc1ccc(C23CCN(CC2)Cc2cc(Oc4ccc(C(F)(F)F)nn4)ccc23)cc1Cl` , report its IC50.
Result block: 6.4

// next item, IC50 requested
Query block: Using the record for `Clc1ccc(C23CCN(CC2)Cc2cc(Oc4cnccn4)ccc23)cc1` , report its IC50.
Result block: 6.1

---

- tgt: hSERT (Homo sapiens (Human))
- protocolSummary: SERT radioligand binding assay ([125I]RTI-55, HEK-293 membranes)
- reportedConditions: recombinant HEK-293 membranes, [125I]RTI-55; read-out: Binding Affinity (IC50, nM) SERT
Recorded IC50 values for a group of compounds are listed next.
// units = nM; emit number, no label

For orientation, consider the following solved cases.
Query block: Using the record for Fc1ccc(C23CCN(Cc4cc(-c5ccc6ncnn6c5)ccc42)C3)cc1Cl (single isomer, unassigned) [55(−)] , report its IC50.
Result block: 2.2

Query block: Using the record for `O=c1n(-c2ccc3c(c2)CN2CCC3(c3ccc(Cl)cc3)CC2)nc2ccccn12` , report its IC50.
Result block: 1.5

Query block: Using the record for `Clc1ccc(C23CCN(CC2)Cc2cc(-c4cnc5ccccc5n4)ccc23)cc1` , report its IC50.
Result block: 5.2

Query block: Using the record for `Clc1ccc(C23CCN(CC2)Cc2cc(N4CCOCC4)ccc23)cc1` , report its IC50.
Result block: 8

Query block: Using the record for COc1ccc2c(c1)CN1CCC2(c2ccc(Cl)cc2)C1 (racemic) , report its IC50.
Result block: 74.2

Query block: Using the record for O=C1NC2C=CC(c3ccc4c(c3)CN3CCC4(c4ccc(Cl)cc4)CC3)=CC2O1 (stereo not shown) , report its IC50.
Result block: 3.4

// next item, IC50 requested
Query block: Using the record for Fc1ccc(C23CCN(Cc4cc(-c5ccc6ncnn6c5)ccc42)C3)cc1Cl (single isomer, unassigned) [55(+)] , report its IC50.
Result block: 18.6

---

- tgt: hDAT (Homo sapiens (Human))
- protocolSummary: DAT radioligand binding assay ([125I]RTI-55, HEK-293 membranes)
- reportedConditions: recombinant HEK-293 membranes, [125I]RTI-55; read-out: Binding Affinity (IC50, nM) DAT
Recorded IC50 values for a group of compounds are listed next.

For orientation, consider the following solved cases.
Query block: Using the record for `Clc1ccc(C23CCN(CC2)Cc2cc(Oc4cnccn4)ccc23)cc1` , report its IC50.
Result block: 116 nM

Query block: Using the record for Oc1ccc(-c2ccc3c(c2)CN2CCC3(c3ccc(Cl)cc3)C2)nn1 (single isomer, unassigned) [7(−)] , report its IC50.
Result block: 16.6 nM

Query block: Using the record for `Nc1cnc(Oc2ccc3c(c2)CN2CCC3(c3ccc(Cl)cc3)CC2)cn1` , report its IC50.
Result block: 104 nM

Query block: Using the record for `FC(F)Oc1ccc(-c2ccc3c(c2)CN2CCC3(c3ccc(Cl)cc3)CC2)nn1` , report its IC50.
Result block: 57.3 nM

Query block: Using the record for `Clc1ccc(C23CCN(CC2)Cc2cc(-c4cnccn4)ccc23)cc1` , report its IC50.
Result block: 83.5 nM

Query block: Using the record for `COc1ccc2c(c1)CN1CCC2(c2ccc(Cl)cc2)CC1` , report its IC50.
Result block: 52 nM

More entries:
Query block: Using the record for `Clc1ccc(C23CCN(CC2)Cc2cc(-c4cncnc4)ccc23)cc1` , report its IC50.
Result block: 156 nM

Query block: Using the record for `FC(F)(F)c1ccc(Oc2ccc3c(c2)CN2CCC3(c3cccc(Cl)c3)CC2)nn1` , report its IC50.
Result block: 55.9 nM

Query block: Using the record for `Clc1ccc(C23CCN(CC2)Cc2cc(N4CCOCC4)ccc23)cc1` , report its IC50.
Result block: 58.9 nM

Query block: Using the record for `O=c1ccccn1-c1ccc2c(c1)CN1CCC2(c2ccc(Cl)cc2)CC1` , report its IC50.
Result block: 856 nM

Query block: Using the record for `Clc1ccc(C23CCN(CC2)Cc2cc(-c4ccc5ncnn5c4)ccc23)cc1Cl` , report its IC50.
Result block: 18.5 nM

Query block: Using the record for O=c1[nH]c2ccc(-c3ccc4c(c3)CN3CCC4(c4ccc(Cl)c(Cl)c4)C3)cc2o1 (single isomer, unassigned) [11(+)] , report its IC50.
Result block: 50 nM

Query block: Using the record for Oc1ccc(-c2ccc3c(c2)CN2CCC3(c3ccc(Cl)cc3)C2)nn1 (single isomer, unassigned) [7(+)] , report its IC50.
Result block: 148 nM

---

- tgt: hNET (Homo sapiens (Human))
- Sequence (P23975 whole entry): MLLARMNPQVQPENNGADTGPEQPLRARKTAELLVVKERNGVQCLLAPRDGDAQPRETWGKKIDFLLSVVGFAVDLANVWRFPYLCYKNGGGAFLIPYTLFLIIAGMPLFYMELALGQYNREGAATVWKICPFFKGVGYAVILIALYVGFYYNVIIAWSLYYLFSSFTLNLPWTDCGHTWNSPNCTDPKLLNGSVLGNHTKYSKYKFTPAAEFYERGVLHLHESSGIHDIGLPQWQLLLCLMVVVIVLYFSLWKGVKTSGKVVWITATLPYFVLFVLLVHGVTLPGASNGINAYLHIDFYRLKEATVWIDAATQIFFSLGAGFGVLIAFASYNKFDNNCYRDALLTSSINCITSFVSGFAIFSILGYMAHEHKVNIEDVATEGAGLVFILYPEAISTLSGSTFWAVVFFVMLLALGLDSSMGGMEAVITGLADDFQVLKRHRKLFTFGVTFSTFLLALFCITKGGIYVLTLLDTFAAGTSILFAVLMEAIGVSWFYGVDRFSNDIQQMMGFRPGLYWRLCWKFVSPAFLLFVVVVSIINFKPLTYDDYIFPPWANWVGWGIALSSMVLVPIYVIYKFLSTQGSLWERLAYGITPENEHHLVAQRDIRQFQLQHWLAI
- protocolSummary: NET radioligand binding assay ([3H]nisoxetine, HEK-293 membranes)
- reportedConditions: recombinant HEK-293 membranes, [3H]nisoxetine; read-out: Binding Affinity (IC50, nM) NET
- Description: The medium was removed from the flasks and the cells rinsed with HBSS without Ca and without Mg. […] Compounds were dissolved in 100% DMSO at a concentration 100 times the desired highest assay concentration, serially diluted 1:3 in 100% DMSO, and 1.0 μl/well of each solution was dispensed to a Nunc polypropylene, round bottom, 384-well plate. […] The plates were air-dried overnight, 12 μl/well of MicroScint scintillation fluid added, and the plates counted in a Trilux. […]
measuredAttribute: IC50 (nM)
// units = nM; emit number, no label

Query block: Using the record for O=c1[nH]c2ccc(-c3ccc4c(c3)CN3CCC4(c4ccc(Cl)c(Cl)c4)C3)cc2o1 (single isomer, unassigned) [11(−)] , report its IC50.
Result block: 92.4

Query block: Using the record for `Clc1ccc(C23CCN(CC2)Cc2cc(N4CCOCC4)ccc23)cc1` , report its IC50.
Result block: 438

Query block: Using the record for `Fc1ccc(C23CCN(CC2)Cc2cc(Oc4ccc(C(F)(F)F)nn4)ccc23)cc1Cl` , report its IC50.
Result block: 112

Query block: Using the record for `Clc1ccc(C23CCN(CC2)Cc2cc(Oc4cnccn4)ccc23)cc1` , report its IC50.
Result block: 910

Query block: Using the record for Clc1ccc(C23CCN(Cc4cc(-c5ccc6ncnn6c5)ccc42)C3)cc1Cl (single isomer, unassigned) [10(+)] , report its IC50.
Result block: 242

Query block: Using the record for `Fc1cc(C23CCN(CC2)Cc2cc(Oc4ccc(C(F)(F)F)nn4)ccc23)ccc1Cl` , report its IC50.
Result block: 134

Query block: Using the record for `Clc1ccc(C23CCN(CC2)Cc2cc(-c4ccc5ncnn5c4)ccc23)cc1Cl` , report its IC50.
Result block: 119

Query block: Using the record for `Clc1ccc(C23CCN(CC2)Cc2cc(-c4cnccn4)ccc23)cc1` , report its IC50.
Result block: 2300

Query block: Using the record for Oc1ccc(-c2ccc3c(c2)CN2CCC3(c3ccc(Cl)cc3)C2)nn1 (single isomer, unassigned) [7(+)] , report its IC50.
Result block: 674

Query block: Using the record for Clc1ccc(C23CCN(Cc4cc(-c5ccc6ncnn6c5)ccc42)C3)cc1Cl (single isomer, unassigned) [10(−)] , report its IC50.
Result block: 73.7

Query block: Using the record for `Oc1ccc(-c2ccc3c(c2)CN2CCC3(c3ccc(Cl)c(Cl)c3)CC2)nn1` , report its IC50.
Result block: 79.2

Query block: Using the record for `Fc1ccc(C23CCN(CC2)Cc2cc(Oc4ccc(C(F)(F)F)nn4)ccc23)cc1F` , report its IC50.
Result block: 231
